Endpoint Name: MIC (µg/mL)
Could you give me the number in µg/mL? Just the number is fine.

[ask] Given the entry Nc1cc2c(=O)c(C(=O)O)cn(C3CC3)c2cc1N1CCSCC1 , what MIC was observed with Escherichia coli CNUR 1?
[reply] 0.5

[ask] Given the entry CC1CN(c2cc3c(cc2N)c(=O)c(C(=O)O)cn3C2CC2)CC(C)N1 (stereo not drawn) , what MIC was observed with Escherichia coli CNUR 1?
[reply] 0.25

[ask] Given the entry CC(C)(C)n1cc(C(=O)O)c(=O)c2cc(N)c(N3CCSCC3)cc21 , what MIC was observed with Escherichia coli CNUR 1?
[reply] 1

[ask] Given the entry Nc1cc2c(=O)c(C(=O)O)cn(C3CC3)c2c(F)c1N1CCSCC1 , what MIC was observed with Escherichia coli CNUR 1?
[reply] 0.5

[ask] Given the entry Cc1c(N2CCSCC2)c(N)cc2c(=O)c(C(=O)O)cn(C3CC3)c12 , what MIC was observed with Escherichia coli CNUR 1?
[reply] 0.5

[ask] Given the entry Cc1c(N2CCc3ccccc3C2)c(N)cc2c(=O)c(C(=O)O)cn(C3CC3)c12 , what MIC was observed with Escherichia coli CNUR 1?
[reply] 4
